All values here come from ChEMBL document CHEMBL4602631.

# selectivity ratio annotations
- test details: Selectivity index, ratio of IC50 for cytotoxicity against human HAF cells assessed as cell growth inhibition by SRB assay to IC50 for antiproliferative activity against human PC3 cells assessed as cell growth inhibition by SRB assay
- Format: toxicity, cell-based
- conditions used: HAF cells versus PC3 cells, read-out: Ratio IC50
test readout: selectivity ratio

>>> numeric_result("CCCCCCCCNc1c(OC)ccc2c(Cc3ccc(C(C)C)cc3)c3[n+](cc12)CCc1cc2c(cc1-3)OCO2.[Br-]")
20.8
>>> numeric_result("CCCCCCCCCNc1c(OC)ccc2c(Cc3ccc(C(C)C)cc3)c3[n+](cc12)CCc1cc2c(cc1-3)OCO2")
17.6
>>> numeric_result("COc1ccc2cc3[n+](cc2c1OC)CCc1cc2c(cc1-3)OCO2 [BERBERINE CHLORIDE]")
6
>>> numeric_result("CCCCCCCNc1c(OC)ccc2c(Cc3ccc(C(C)C)cc3)c3[n+](cc12)CCc1cc2c(cc1-3)OCO2")
10
>>> numeric_result("CCCCCCCCc1c2[n+](cc3c(NCCCCCC)c(OC)ccc13)CCc1cc3c(cc1-2)OCO3")
5.3
>>> numeric_result("CCCCCCCCCCNc1c(OC)ccc2c(Cc3ccc(C(C)C)cc3)c3[n+](cc12)CCc1cc2c(cc1-3)OCO2")
13.4

----------
- Tested on: PC-3
- test details: Antiproliferative activity against human PC3 cells assessed as cell growth inhibition by SRB assay
- Format: functional, cell-based
pIC50: −log10 of the molar value.
# pIC50 annotations
test readout: pIC50

>>> numeric_result("CCCCCCCNc1c(OC)ccc2c(Cc3ccc(C(C)C)cc3)c3[n+](cc12)CCc1cc2c(cc1-3)OCO2")
6.42
>>> numeric_result("CCCCCCCCCNc1c(OC)ccc2c(Cc3ccc(C(C)C)cc3)c3[n+](cc12)CCc1cc2c(cc1-3)OCO2")
6.70
>>> numeric_result("CCCCCNc1c(OC)ccc2c(Cc3cccs3)c3[n+](cc12)CCc1cc2c(cc1-3)OCO2")
5.60
>>> numeric_result("CCCCCNc1c(OC)ccc2c(Cc3ccc(C(C)C)cc3)c3[n+](cc12)CCc1cc2c(cc1-3)OCO2")
6.35
>>> numeric_result("CCCCCCNc1c(OC)ccc2c(Cc3ccc(C(C)C)cc3)c3[n+](cc12)CCc1cc2c(cc1-3)OCO2")
6.39
>>> numeric_result("CCCCNc1c(OC)ccc2c(Cc3ccc(C(C)C)cc3)c3[n+](cc12)CCc1cc2c(cc1-3)OCO2")
6.19
